- target.of.assay: Cytochrome P450 3A4 (Homo sapiens)
- Sequence (P08684 whole entry): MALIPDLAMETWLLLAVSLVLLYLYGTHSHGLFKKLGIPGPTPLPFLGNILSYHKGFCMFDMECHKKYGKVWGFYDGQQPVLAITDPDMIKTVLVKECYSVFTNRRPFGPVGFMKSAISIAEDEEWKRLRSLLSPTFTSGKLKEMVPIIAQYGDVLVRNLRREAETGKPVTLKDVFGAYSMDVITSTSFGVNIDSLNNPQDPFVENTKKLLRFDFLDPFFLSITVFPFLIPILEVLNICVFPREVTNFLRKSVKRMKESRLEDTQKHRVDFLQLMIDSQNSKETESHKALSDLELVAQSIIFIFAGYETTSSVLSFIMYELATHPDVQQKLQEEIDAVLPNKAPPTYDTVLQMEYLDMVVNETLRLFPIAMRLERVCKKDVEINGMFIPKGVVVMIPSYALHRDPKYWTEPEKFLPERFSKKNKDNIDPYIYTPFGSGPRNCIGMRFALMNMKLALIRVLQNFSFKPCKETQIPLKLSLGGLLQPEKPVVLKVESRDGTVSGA
- experimental.protocol: Inhibition of CYP3A4 in human hepatocytes
- Type: ADME, cell-based, Hepatocyte
outcome.measure: IC50 (µM)
Write the value in µM as a bare number.

Bench note: what IC50 did CCn1nc2c(-c3ccc(Cl)cc3)c(-c3ccncc3)c(=O)n(Cc3ccc(C(F)(F)F)nc3C)n2c1=O show?
3

###

Reported half-life values for the following molecules.
- experimental.protocol: Elimination half life in iv dosed dog
- Type: ADME, organism-based, Canis lupus familiaris
- stated.conditions: in vivo, read-out: beta t1/2 (converted)
Phrase the answer as number then unit, nothing more needed.

These solved cases illustrate the format of a correct answer.
CCn1nc2c(-c3ccc(Cl)cc3)c(-c3cnc(C)nc3)c(=O)n(Cc3ccc(C(F)(F)F)nc3C)n2c1=O = 42 h
CCn1nc2c(-c3ccc(Cl)cc3)c(-c3ccc(CO)nc3)c(=O)n(Cc3ccc(C(F)(F)F)nc3C)n2c1=O = 7 h
CCn1nc2c(-c3ccc(Cl)cc3)c(-c3ccncc3)c(=O)n(Cc3ccc(C(F)(F)F)nc3C)n2c1=O = 38 h
CCn1nc2c(-c3ccc(Cl)cc3)c(-c3ccc(C#N)cc3)c(=O)n(Cc3ccc(C#N)cc3)n2c1=O = 45 h

Shift focus to the following entry.
Which half-life value belongs to CCn1nc2c(-c3ccc(Cl)cc3)c(-c3ccc(C#N)cc3)c(=O)n(Cc3ccc(C(F)(F)F)nc3C)n2c1=O ?
70 h

Source: ChEMBL document CHEMBL3259698
